For each of the compounds below, state its Particle size (nm).
- protocol: Particle size and PDI of nucleic acid lipid nanoparticle preparations by dynamic light scattering
- Format: physicochemical
- cond: DMG-PEG2000:DSPC:Chol:compound 1.40:11.15:38.95:48.50, N/P 30
Please give a number only; it is taken to be in nm.

Need Particle size (nm), item CCCCCCCCCCOC(=O)C(O)CN(CCN(C)CCN(CC(O)C(=O)OCCCCCCCCCC)CC(O)C(=O)OCCCCCCCCCC)CC(O)C(=O)OCCCCCCCCCC (stereo not shown) 102.07

Need Particle size (nm), item CCCCCCCCCCCCNC(=O)C(O)CN(C)CCCN(C)CCCN(C)CC(O)C(=O)NCCCCCCCCCCCC (stereo not shown) 111.00

Please look up its Particle size (nm): CCCCCCC(CCCCCC)C(=O)OCCCCCCOC(=O)C(O)CN(CCN(C)CCN(CC(O)C(=O)OCCCCCCOC(=O)C(CCCCCC)CCCCCC)CC(O)C(=O)OCCCCCCOC(=O)C(CCCCCC)CCCCCC)CC(O)C(=O)OCCCCCCOC(=O)C(CCCCCC)CCCCCC (stereo not shown) 78.38

What value of measured Particle size (nm) is listed for CCCCCCCCCCCCNCC(O)CN(CCN(CCN(CC(O)CNCCCCCCCCCCCC)CC(O)C(=O)NCCCCCCCCCCCC)CC(O)C(=O)NCCCCCCCCCCCC)CC(O)C(=O)NCCCCCCCCCCCC (stereo not shown) ? 150.70

Field request: Particle size (nm) | item: CCCCCCCC/C=C\CCCCCCCCNC(=O)C(O)CN(CCN(C)CCN(CC(O)C(=O)NCCCCCCCC/C=C\CCCCCCCC)CC(O)C(=O)NCCCCCCCC/C=C\CCCCCCCC)CC(O)C(=O)NCCCCCCCC/C=C\CCCCCCCC (stereo not shown) 91.76

Need Particle size (nm) of CCCCCCCCCCCCNC(=O)C(O)CNCCN(C)CCN(CC(O)C(=O)NCCCCCCCCCCCC)CC(O)C(=O)NCCCCCCCCCCCC (stereo not shown) , thanks. 89.51

Look up Particle size (nm) for this compound: CCCCCCCCCCCCCCOC(=O)C(O)CN(CCN(C)CCN(CC(O)C(=O)OCCCCCCCCCCCCCC)CC(O)C(=O)OCCCCCCCCCCCCCC)CC(O)C(=O)OCCCCCCCCCCCCCC (stereo not shown) 96.63

Endpoint output: Particle size (nm) of CCCCCCCCCCCCOC(=O)C(O)CN(C)CCCN(C)CCCN(C)CC(O)C(=O)OCCCCCCCCCCCC (stereo not shown) . Value? 190.63

Item CCCCCCC(CCCCCC)C(=O)OCCCCOC(=O)C(O)CN(CCCN(C)CCCN(CC(O)C(=O)OCCCCOC(=O)C(CCCCCC)CCCCCC)CC(O)C(=O)OCCCCOC(=O)C(CCCCCC)CCCCCC)CC(O)C(=O)OCCCCOC(=O)C(CCCCCC)CCCCCC (stereo not shown) has what recorded Particle size (nm)? 129.13

Entry CCCCCCCCCCCCNCC(O)CN(CCCCCN(C)CCCCCN(CC(O)CNCCCCCCCCCCCC)CC(O)C(=O)NCCCCCCCCCCCC)CC(O)C(=O)NCCCCCCCCCCCC (stereo not shown) : reported Particle size (nm) = ? 122.57

Give its Particle size (nm) value. Item: CCCCCCC(CCCCCC)C(=O)OCCCCCCOC(=O)C(O)CN(C)CCN(C)CCN(C)CC(O)C(=O)OCCCCCCOC(=O)C(CCCCCC)CCCCCC (stereo not shown) 259.67

Request the reported Particle size (nm) associated with CCCCCCOC(C)OCCCCCCOC(=O)C(O)CN(CCN(C)CCN(CC(O)C(=O)OCCCCCCOC(C)OCCCCCC)CC(O)C(=O)OCCCCCCOC(C)OCCCCCC)CC(O)C(=O)OCCCCCCOC(C)OCCCCCC (stereo not shown) 130.70

// query Particle size (nm) value for entry CCCCCCCCCCNC(=O)C(O)CN(C)CCCN(C)CCCN(C)CC(O)C(=O)NCCCCCCCCCC (stereo not shown) 108.57

###

- protocol: Particle size and PDI of nucleic acid lipid nanoparticle preparations by dynamic light scattering
- Assay type: physicochemical
- cond: DMG-PEG2000:DSPC:Chol:Lipid 1.40:11.15:38.95:48.50, N/P 18, mRNA LNP
For each of the molecules below, state its PDI.
Kindly provide the number alone.

Item CCCCCCCCCCOC(=O)C(O)CN(C)CCN(C)CCN(C)CC(O)C(=O)OCCCCCCCCCC (stereo not drawn) has what recorded PDI? 0.17

I'd like to know its PDI. The molecule in question is CC/C=C\CCOCOCCCCCCOC(=O)C(O)CN(C)CCN(C)CCN(C)CC(O)C(=O)OCCCCCCOCOCC/C=C\CC (stereo not drawn) 0.12

Which measured PDI value corresponds to CCCCCCCCCCCCNC(=O)C(O)CN(C)CCN(C)CCN(C)CC(O)C(=O)NCCCCCCCCCCCC (stereo not drawn) ? 0.23

###

- Tested on: mice
- protocol: In vivo delivery of FLuc-mRNA lipid nanoparticles in mice, in vivo imaging (IVIS)
- cond: IV, liver; DMG-PEG2000:DSPC:Chol:compound 1.40:11.15:38.95:48.50, N/P 30; Fluc-mRNA
Provide the reported IVIS of each item.
# print the numeric value only

Bench note: what IVIS did CCCCCCC(CCCCCC)C(=O)OCCCCCCOC(=O)C(O)CN(CCN(C)CCN(CC(O)C(=O)OCCCCCCOC(=O)C(CCCCCC)CCCCCC)CC(O)C(=O)OCCCCCCOC(=O)C(CCCCCC)CCCCCC)CC(O)C(=O)OCCCCCCOC(=O)C(CCCCCC)CCCCCC (centres unmarked) [Compound L0336] show? 1.95E+08

Field request: IVIS | item: CCCCCCCCC(CCCCCC)C(=O)OCCCCOC(=O)C(O)CN(CCN(C)CCN(CC(O)C(=O)OCCCCOC(=O)C(CCCCCC)CCCCCCCC)CC(O)C(=O)OCCCCOC(=O)C(CCCCCC)CCCCCCCC)CC(O)C(=O)OCCCCOC(=O)C(CCCCCC)CCCCCCCC (centres unmarked) [Compound L0298] 3.03E+07

Bench note: what IVIS did CCCCCCOC(C)OCCCCCCOC(=O)C(O)CN(CCCN(CC(O)C(=O)OCCCCCCOC(C)OCCCCCC)CC(O)C(=O)OCCCCCCOC(C)OCCCCCC)CCCN(CC(O)C(=O)OCCCCCCOC(C)OCCCCCC)CC(O)C(=O)OCCCCCCOC(C)OCCCCCC (centres unmarked) [Compound L0340] show? 2.85E+07

Returns the measured IVIS for the input compound. Input: CCCCCCOC(C)OCCCCCCOC(=O)C(O)CN(CCN(C)CCN(CC(O)C(=O)OCCCCCCOC(C)OCCCCCC)CC(O)C(=O)OCCCCCCOC(C)OCCCCCC)CC(O)C(=O)OCCCCCCOC(C)OCCCCCC (centres unmarked) [Compound L0333] 1.29E+08

// returns reported IVIS for input CCCCCCCCC(CCCCCC)C(=O)OCCCCCCOC(=O)C(O)CN(C)CCN(C)CCN(C)CC(O)C(=O)OCCCCCCOC(=O)C(CCCCCC)CCCCCCCC (centres unmarked) [Compound L0292] 3.22E+06
